For each record, write down the corresponding Brix (48 Hours).
- ASSAY EXPLANATION: Calcium salts, physical/chemical attributes in orange juice, 450 mg/100 mL calcium load
- Type: physicochemical
- PROTOCOL CONDITIONS: 48 hours
Answers are plain numbers.

A selection of reference data follows.
> print(dat)
                                   compound  readout.number
1  O=P([O-])([O-])[O-].O=P([O-])([O-])[O-].[Ca+2].[Ca+2].[Ca+2] [tricalcium phosphate (fine), tricalcium phosphate]           12.30
2  N[C@@H](CCC(=O)[O-])C(=O)[O-].O.O.O.O.[Ca+2] [calcium L-glutamate tetrahydrate]           13.81
3  O=C[O-].O=C[O-].[Ca+2] [calcium formate]           12.59
4  O.O=P([O-])(O)O.O=P([O-])(O)O.[Ca+2] [monocalcium phosphate monohydrate]           12.92

Hey, can you go through the list below and give me Brix (48 Hours) for every item?
1. O=P([O-])([O-])[O-].O=P([O-])([O-])[O-].[Ca+2].[Ca+2].[Ca+2] [tricalcium phosphate]
2. O=C([O-])CC(O)C(=O)[O-].[Ca+2] (centres unmarked) [calcium malate]
3. O=P([O-])([O-])O.[Ca+2] [dicalcium phosphate anhydrous]
4. O.O.O=C([O-])[C@H](O)[C@@H](O)C(=O)[O-].[Ca+2] [calcium L-tartrate dihydrate]

[out]
1: 12.40; 2: 12.80; 3: 12.04; 4: 12.02

----------
- ASSAY EXPLANATION: Calcium salts, physical/chemical attributes in orange juice, 450 mg/100 mL calcium load
- Assay type: physicochemical
- PROTOCOL CONDITIONS: unfortified juice 18.3
For each record, write down the corresponding Brix/Acid Ratio.
Answers are plain numbers.

A selection of reference data follows.
> print(dat)
                                   molecule  readout.number
1  O=P([O-])([O-])[O-].O=P([O-])([O-])[O-].[Ca+2].[Ca+2].[Ca+2] [tricalcium phosphate]            22.1
2  N[C@@H](CCC(=O)[O-])C(=O)[O-].O.O.O.O.[Ca+2] [calcium L-glutamate tetrahydrate]            22.0
3  O=C[O-].O=C[O-].[Ca+2] [calcium formate]            20.3
4  CC(O)C(=O)[O-].CC(O)C(=O)[O-].O.O.O.O.O.[Ca+2] (centres unmarked) [calcium lactate pentahydrate]            19.8
5  O.O.O=C([O-])[C@H](O)[C@@H](O)C(=O)[O-].[Ca+2] [calcium L-tartrate dihydrate]            22.1
6  O.O.O.O=C([O-])/C=C/C(=O)[O-].[Ca+2] [calcium fumarate trihydrate]            19.7
7  O=C([O-])CC(O)(CC(=O)[O-])C(=O)[O-].O=C([O-])CC(O)(CC(=O)[O-])C(=O)[O-].[Ca+2].[Ca+2].[Ca+2] [tri-calcium citrate]            19.2

Now examine the next entry.
Field Brix/Acid Ratio (entry O.O.[Ca+2].[Cl-].[Cl-] [calcium chloride dihydrate] ) reads 20.5

----------
For each record, write down the corresponding Brix/Acid Ratio.
- ASSAY EXPLANATION: Calcium salts, physical/chemical attributes in orange juice, 450 mg/100 mL calcium load
- Type: physicochemical
- PROTOCOL CONDITIONS: unfortified juice 18.3

> print(dat)
                                   compound  result
1  O.O=C([O-])CCC(=O)[O-].[Ca+2] [calcium succinate monohydrate]    21.2
2  O.O.O=P([O-])([O-])O.[Ca+2] [dicalcium phosphate dihydrate]    18.0
3  O.O=P([O-])([O-])OCC(O)CO.[Ca+2] (centres unmarked) [calcium glycerophosphate monohydrate]    21.3
4  O=C([O-])CC(O)C(=O)[O-].[Ca+2] (centres unmarked) [calcium malate]    20.0

Field Brix/Acid Ratio (entry O=C([O-])[O-].[Ca+2] [calcium carbonate] ) reads 125.7

----------
- ASSAY EXPLANATION: Calcium salts, physical/chemical attributes in orange juice, 350 mg/100 mL calcium load
- Type: physicochemical
- PROTOCOL CONDITIONS: unfortified juice 18.3
For each record, write down the corresponding Brix/Acid Ratio.

A selection of reference data follows.
> print(dat)
                                   molecule    assay.readout  result
1  O.O.O=P([O-])([O-])O.[Ca+2] [dicalcium phosphate dihydrate]  Brix/Acid Ratio    18.5
2  N[C@@H](CCC(=O)[O-])C(=O)[O-].O.O.O.O.[Ca+2] [calcium L-glutamate tetrahydrate]  Brix/Acid Ratio    21.6

Hey, can you go through the list below and give me Brix/Acid Ratio for every item?
1. O.O.[Ca+2].[Cl-].[Cl-] [calcium chloride dihydrate]
2. O=C([O-])[O-].[Ca+2] [calcium carbonate]
3. O=P([O-])([O-])[O-].O=P([O-])([O-])[O-].[Ca+2].[Ca+2].[Ca+2] [tricalcium phosphate]

[out]
[20.3, 65.7, 23.4]
